Can you tell me IC50 for the items I'm about to list?
- target.or.test.system: Dimer of Gag-Pol polyprotein [501-599] (Human immunodeficiency virus 1, UniProt P03367)
- Construct: 501-599
- protocol.text: Protease Inhibition Assay
One number for each entry, in nM.

Sample records with IC50:
compound	value.unit	IC50
CC(C)CN(C(CO)CCCCNC(=O)[C@@H](NC(=O)c1ncccc1O)C(c1ccccc1)c1ccccc1)S(=O)(=O)c1ccc(N)cc1 (some centres not stated)	nM	0.9
CC(C)CN(C(CO)CCCCNC(=O)[C@@H](NC(=O)N(C)C)C(c1ccccc1)c1ccccc1)S(=O)(=O)c1ccc(N)cc1 (some centres not stated)	nM	0.44
CC(C)CN(C(CO)CCCCNC(=O)[C@@H](NC(=O)c1ccccc1O)C(c1ccccc1)c1ccccc1)S(=O)(=O)c1ccc(N)cc1 (some centres not stated)	nM	0.63
CC(C)CN(C(CO)CCCCNC(=O)[C@@H](NC(=O)OCc1ccncc1)C(c1ccccc1)c1ccccc1)S(=O)(=O)c1ccc(N)cc1 (some centres not stated)	nM	0.39
COc1cc(C(=O)N[C@H](C(=O)NCCCCC(CO)N(CC(C)C)S(=O)(=O)c2ccc(N)cc2)C(c2ccccc2)c2ccccc2)ccc1O (some centres not stated)	nM	0.5
CC(C)CN(C(CO)CCCCNC(=O)[C@@H](N)C(c1ccccc1)c1ccccc1)S(=O)(=O)c1ccc(N)cc1 (some centres not stated)	nM	0.5

# input for lookup
## Task For the compound Cc1ccc(C(=O)N[C@H](C(=O)NCCCCC(CO)N(CC(C)C)S(=O)(=O)c2ccc(N)cc2)C(c2ccccc2)c2ccccc2)cn1 (some centres not stated) , what IC50 is on record?
## Result 0.4

---

- target.or.test.system: Dimer of Gag-Pol polyprotein [501-599] (Human immunodeficiency virus 1)
- Construct: 501-599
- protocol.text: Protease Inhibition Assay
quantity.measured: Ki

See these solved cases before continuing.
compound	Ki
CC(C)CN(C(CO)CCCCNC(=O)[C@@H](NC(=O)c1cccnc1)C(c1ccccc1)c1ccccc1)S(=O)(=O)c1ccc(N)cc1 (some centres not stated)	0.55 nM
Cc1ncccc1C(=O)N[C@H](C(=O)NCCCCC(CO)N(CC(C)C)S(=O)(=O)c1ccc(N)cc1)C(c1ccccc1)c1ccccc1 (some centres not stated)	0.4 nM
CC(C)CN(C(CO)CCCCNC(=O)[C@@H](NC(=O)N(C)C)C(c1ccccc1)c1ccccc1)S(=O)(=O)c1ccc(N)cc1 (some centres not stated)	0.58 nM
CC(C)CN(C(CO)CCCCNC(=O)[C@@H](NC(=O)c1ccc(O)cc1)C(c1ccccc1)c1ccccc1)S(=O)(=O)c1ccc(N)cc1 (some centres not stated)	0.47 nM
CC(C)CN(C(CO)CCCCNC(=O)[C@@H](N)C(c1ccccc1)c1ccccc1)S(=O)(=O)c1ccc(N)cc1 (some centres not stated)	0.56 nM

I would be grateful if you could provide Ki for each of the following entries.
1. CC(C)CN(C(CO)CCCCNC(=O)[C@@H](NC(=O)c1ccc[nH]1)C(c1ccccc1)c1ccccc1)S(=O)(=O)c1ccc(N)cc1 (some centres not stated)
2. CC(C)CN(C(CO)CCCCNC(=O)[C@@H](NC(=O)N1CCOCC1)C(c1ccccc1)c1ccccc1)S(=O)(=O)c1ccc(N)cc1 (some centres not stated)

## Result
1. 0.47 nM
2. 0.55 nM
